# measured on: T1, wildtype feline IL-31 protein (Feline_IL31_wildtype) (feline)
# T1 chain: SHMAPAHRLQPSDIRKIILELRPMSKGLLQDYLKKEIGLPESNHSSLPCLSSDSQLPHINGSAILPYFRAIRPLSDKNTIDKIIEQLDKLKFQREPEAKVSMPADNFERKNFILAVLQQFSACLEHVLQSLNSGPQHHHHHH
# experimental details: cell-based or functional assay
Hi, to clarify the labels: true (1) covers % Inhibition Relative to Parent (pSTAT, FCWF-4 cells) from 40% upward, false (0) covers anything below 40%.

>  <binder>
A35 (antibody, V domains shown) VH: QVLLVQSGAEVRTPGASVKIFCKASGYSFTSYTAHWLRQAPAQGLEWMGNINPTSGYTENNQRFKDRLTLTADTSTNTAYMELSSLRSADTAMYYCARWGFKYDGEWSFDVWGAGTTVTVSS VL: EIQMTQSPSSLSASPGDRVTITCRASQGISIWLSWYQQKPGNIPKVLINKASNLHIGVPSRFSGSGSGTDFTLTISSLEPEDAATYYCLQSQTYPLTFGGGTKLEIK

>  <label value>
true (1)

$$$$

Enquiry: Could you please find out whether A43 (antibody, V domains shown) VH: QVLLVQSGAEVRTPGASVKIFCKASGYSFTSYTIHWLRQAPAQGLEWMGNINPTAGYTENNQRFKDRLTLTADTSTNTAYMELSSLRSADTAMYYCARWGFKYDGEWSFDVWGAGTTVTVSS VL: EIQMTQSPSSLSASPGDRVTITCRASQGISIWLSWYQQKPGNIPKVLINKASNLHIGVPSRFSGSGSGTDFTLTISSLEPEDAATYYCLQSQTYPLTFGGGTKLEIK has % Inhibition Relative to Parent (pSTAT, FCWF-4 cells) that meets 40% or exceeds it?
Return: true (1)

Enquiry: Could you please find out whether A62 (antibody, V domains shown) VH: QVLLVQSGAEVRTPGASVKIFCKASGYSFTSYTIHWLRQAPAQGLEWMGNINPTSGYTENNQRFKDRLTLTADTSTNTAYMELSSLRSADTAMYYCARWGFKYDGEWAFDVWGAGTTVTVSS VL: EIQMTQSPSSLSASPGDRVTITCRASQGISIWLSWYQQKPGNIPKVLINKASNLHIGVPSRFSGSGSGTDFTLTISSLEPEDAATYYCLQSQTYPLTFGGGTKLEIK has % Inhibition Relative to Parent (pSTAT, FCWF-4 cells) that meets 40% or exceeds it?
Return: false (0)

Enquiry: Could you please find out whether A44 (antibody, V domains shown) VH: QVLLVQSGAEVRTPGASVKIFCKASGYSFTSYTIHWLRQAPAQGLEWMGNINPTSAYTENNQRFKDRLTLTADTSTNTAYMELSSLRSADTAMYYCARWGFKYDGEWSFDVWGAGTTVTVSS VL: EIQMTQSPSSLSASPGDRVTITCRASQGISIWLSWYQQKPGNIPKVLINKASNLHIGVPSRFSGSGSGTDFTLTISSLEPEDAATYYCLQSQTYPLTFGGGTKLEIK has % Inhibition Relative to Parent (pSTAT, FCWF-4 cells) that meets 40% or exceeds it?
Return: false (0)
